I'd be grateful if you could share measured inhibition at 100 µM for these entries.
experimental target: mouse glycolate oxidase (mGO) (Mus musculus)
Construct: His6 (N); made in house; host or cells: E. coli BL21 (DE3)
Sequence (Q9WU19 1-370): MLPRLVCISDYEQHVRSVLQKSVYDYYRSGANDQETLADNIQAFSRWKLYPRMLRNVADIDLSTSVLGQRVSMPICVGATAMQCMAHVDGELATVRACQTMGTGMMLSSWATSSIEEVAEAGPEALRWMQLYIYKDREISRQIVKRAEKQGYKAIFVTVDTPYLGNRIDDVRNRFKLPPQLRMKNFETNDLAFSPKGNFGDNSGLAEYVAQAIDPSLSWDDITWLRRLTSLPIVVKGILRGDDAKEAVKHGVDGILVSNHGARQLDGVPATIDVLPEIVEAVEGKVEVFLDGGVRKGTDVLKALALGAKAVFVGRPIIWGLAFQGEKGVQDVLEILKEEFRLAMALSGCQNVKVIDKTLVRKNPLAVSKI
method summary: In vitro inhibition of mouse glycolate oxidase (mGO), HRP-coupled Trinder reaction
Format: biochemical
condition description: compound tested at 100 μM; 40 mM glycolic acid as substrate; activity calculated at 1 minute
Structures can show the parent of a compound that is named as a salt.

For Cc1[nH]nc(C(=O)O)c1Nc1ccc(Cc2ccc(OCCOC3CN(C(=O)OC(C)(C)C)C3)cc2)cc1 [Compound 59] the compound record lists inhibition at 100 µM as < 30%

Just so you know, measured inhibition at 100 µM for COc1ccc(CNc2ccnnc2C(=O)O)c(OC)c1 [Compound 49] came out at 30 to 60%

# inhibition at 100 µM of CC(C)(C)OC(=O)N1CCN(CCOc2ccc(Cc3ccc(Nc4ccnnc4C(=O)O)cc3)cc2)CC1 [Compound 72 Na salt, Sodium Salt] = > 60%

---

experimental target: mouse glycolate oxidase (mGO) (Mus musculus)
Construct: His6 (N); made in house; host or cells: E. coli BL21 (DE3)
method summary: In vitro inhibition of mouse glycolate oxidase (mGO), HRP-coupled Trinder reaction
Type: biochemical
condition description: compound tested at 100 μM; 40 mM glycolic acid as substrate; activity calculated at 1 minute
Experimental: Protein expression. BL21 (DE3) E. coli transformed with recombinant pET-15b expression vector containing mouse Hao1 cDNA with an N-terminal His6 tag was grown in LB medium in the presence of 0.1 mg/mL ampicillin. […] Protein was quantified by the bicinchoninic acid (BCA) assay. Inhibition assays. Enzymatic activity of mGO was determined in the presence of glycolate as substrate (40 mM glycolic acid) and phosphate buffer (50 mM KPO4, 0.1 mM EDTA, pH 7). […]
Counter-ions that a name gives are not always drawn.
For each of the molecules below, state its inhibition at 100 µM.

Record Cc1onc(C(=O)O)c1Cc1ccc(Br)cc1 . Reported inhibition at 100 µM: < 30%

Per the record, Cc1[nH]nc(C(=O)O)c1Nc1cccc(Br)c1 has inhibition at 100 µM of 30 to 60%

What the record says about Cc1onc(C(=O)O)c1Nc1ccc(Cc2ccc(F)cc2)cc1 : inhibition at 100 µM is < 30%

Lab note: measured inhibition at 100 µM of O=C(O)c1nnsc1Cc1ccc(Br)cc1 was > 60%

Per the records, this molecule ( O=C(O)c1nnccc1NCc1ccc(F)cc1 [Compound 50, sodium salt] ) has inhibition at 100 µM equal to < 30%

For this molecule ( Cc1onc(C(=O)O)c1Nc1ccc(CCc2ccc(F)cc2)cc1 ), measured inhibition at 100 µM is 30 to 60%

Form: molecule = Cc1n[nH]c(C(=O)O)c1N(Cc1ccc(F)cc1)Cc1ccc(F)cc1 ; inhibition at 100 µM = 30 to 60%

Documented inhibition at 100 µM of N#Cc1ccc(-c2ccc(Cc3snnc3C(=O)O)cc2)cc1 : 30 to 60%

Value of measured inhibition at 100 µM for the entry Cc1[nH]nc(C(=O)O)c1Nc1ccc(-c2ccc(C#N)cc2)cc1 : 30 to 60%

// recorded inhibition at 100 µM for Cc1[nH]nc(C(=O)O)c1Nc1ccc(Br)cc1 : < 30%

inhibition at 100 µM for O=C(O)c1nnsc1Cc1ccc(Oc2ccccc2)cc1 is 30 to 60%

Please fill in: inhibition at 100 µM reported for Cc1snc(C(=O)O)c1NCc1ccc(F)cc1 = 30 to 60%

Looking up Cc1onc(C(=O)O)c1SCc1ccccc1 , I see its inhibition at 100 µM listed as < 30%

inhibition at 100 µM for Cc1onc(C(=O)O)c1Cc1ccc(-c2ccc(C#N)cc2)cc1 is 30 to 60%

# inhibition at 100 µM (molecule: Cc1snc(C(=O)O)c1Nc1cccc(-c2ccc(C#N)cc2)c1 ) is 30 to 60%

Value of inhibition at 100 µM reported for the molecule Cc1[nH]nc(C(=O)O)c1Nc1cccc(-c2ccc(C#N)cc2)c1 is 30 to 60%

Please fill in: inhibition at 100 µM reported for Cc1onc(C(=O)O)c1Cc1ccc(Oc2ccccc2)cc1 = 30 to 60%

Kindly note the recorded inhibition at 100 µM for O=C(O)c1nnsc1Nc1ccc(-n2cccn2)cc1 , which is > 60%

The reported value for Cc1[nH]nc(C(=O)O)c1Nc1ccc(Cc2ccc(OCCN3CCNCC3)cc2)cc1 [Compound 64, hydrochloride] in terms of inhibition at 100 µM is < 30%

According to the records, this molecule CC(C)(C)OC(=O)N1CC(OCCOc2ccc(Cc3ccc(Nc4ccnnc4C(=O)O)cc3)cc2)C1 [Compound 68 Na salt, sodium Salt] displays inhibition at 100 µM of > 60%
